Ref: paper PMC7312527

Assay: in vitro
Assay type: cell-based
Details: human, human hepatic stellate cells (HSCs); HSCs, 0.1 µM, 24 h; read-out: hepatotoxicity (MTT; cell viability as percentage of control)
measured attribute: viability at 24 h, 0.1 µM (%)
Form entry: value (%) — number only.

Lookup: Dear colleague, I am looking for the recorded viability at 24 h, 0.1 µM of the following compound: O=C(NCCCCNc1c2c(nc3ccccc13)CCCC2)c1cc(Cl)cc(Cl)c1 [Compound 3c]
Found: 99.9

---

Assay: In vivo acute oral toxicity (OECD 423)
Details: female, Balb/c, mouse, in vivo, mice, read-out: LD50 cut-off values
measured attribute: LD50 at 14 days (mg/kg)
Respond numerically; units are mg/kg and should not be typed.

Lookup: Please look up its LD50 at 14 days: O=C(NCCCCNc1c2c(nc3ccccc13)CCCC2)c1cc(Cl)cc(Cl)c1 [Compound 3c]
Found: 500
